Assay: In vivo pharmacokinetics, lung tissue homogenate (UPLC-MS/MS)
Design: species or system rat
Conditions: male, Sprague-Dawley (SD), inhaled; rat lung tissue homogenate; pulmonary administration BA/AH-DPI 9 mg/kg; 4 min; read-out: Drug concentration of BA in lung tissue
assay.metric: concentration at 4 min (ng/mL)

smi | observed
O=C(O)[C@H]1O[C@@H](Oc2cc3oc(-c4ccccc4)cc(=O)c3c(O)c2O)[C@H](O)[C@@H](O)[C@@H]1O | 4960

* * *

Assay: In vivo pharmacokinetics, plasma (UPLC-MS/MS)
Set-up: species or system rat
Conditions: male, SD; rat plasma; tail intravenous injection BA/AH-DPI saline solution 9 mg/kg; 60 min; read-out: Blood concentration of AH
Counter-ions that a name gives are not always drawn.
assay.metric: concentration at 60 min (ng/mL)

compound | assay.metric | observed
Nc1c(Br)cc(Br)cc1CNC1CCC(O)CC1 (stereo not shown) [AH, ambroxol hydrochloride] | concentration at 60 min | 148

* * *

Experiment: In vivo pharmacokinetics, lung tissue homogenate (UPLC-MS/MS)
Design: species or system rat
Details: male, Sprague-Dawley (SD), inhaled; rat lung tissue homogenate; pulmonary administration BA/AH-DPI 9 mg/kg; 60 min; read-out: Drug concentration of AH in lung tissue
Structures can show the parent of a compound that is named as a salt.

compound | concentration at 60 min / ng/mL
Nc1c(Br)cc(Br)cc1CNC1CCC(O)CC1 (stereo not shown) [AH, ambroxol hydrochloride] | 503

* * *

Assay: In vivo pharmacokinetics, lung tissue homogenate (UPLC-MS/MS)
Parameters: species or system rat
Details: male, Sprague-Dawley (SD); rat lung tissue homogenate; tail intravenous injection BA/AH-DPI saline solution 9 mg/kg; 4 min; read-out: Drug concentration of BA in lung tissue

smi | concentration at 4 min
O=C(O)[C@H]1O[C@@H](Oc2cc3oc(-c4ccccc4)cc(=O)c3c(O)c2O)[C@H](O)[C@@H](O)[C@@H]1O | 42 ng/mL

* * *

Assay: In vivo pharmacokinetics, plasma (UPLC-MS/MS)
Set-up: species or system rat
Conditions: male, SD, inhaled or intranasal; BA in rat plasma; pulmonary administration group, BA/AH-DPI 9 mg/kg; read-out: CL/F (clearance) (converted)

smi | CL/F (mL/min/kg)
O=C(O)[C@H]1O[C@@H](Oc2cc3oc(-c4ccccc4)cc(=O)c3c(O)c2O)[C@H](O)[C@@H](O)[C@@H]1O | 121

* * *

Test: In vivo pharmacokinetics, plasma (UPLC-MS/MS)
Parameters: species or system rat
Conditions: male, SD, inhaled; rat plasma; pulmonary administration BA/AH-DPI 9 mg/kg; 2 min; read-out: Blood concentration of BA
assay.metric: concentration at 2 min (ng/mL)

smi | assay.metric | value.unit | observed
O=C(O)[C@H]1O[C@@H](Oc2cc3oc(-c4ccccc4)cc(=O)c3c(O)c2O)[C@H](O)[C@@H](O)[C@@H]1O | concentration at 2 min | ng/mL | 690

* * *

Test: In vivo pharmacokinetics, plasma (UPLC-MS/MS)
Parameters: species or system rat
Details: male, SD, inhaled; rat plasma; pulmonary administration BA/AH-DPI 9 mg/kg; 15 min; read-out: Blood concentration of AH
Counter-ions that a name gives are not always drawn.
assay.metric: concentration at 15 min

compound | observed
Nc1c(Br)cc(Br)cc1CNC1CCC(O)CC1 (stereo not shown) [AH, ambroxol hydrochloride] | 464 ng/mL

* * *

Assay: In vivo pharmacokinetics, plasma (UPLC-MS/MS)
Parameters: species or system rat
Settings: male, SD, inhaled; rat plasma; pulmonary administration BA/AH-DPI 9 mg/kg; 60 min; read-out: Blood concentration of BA
assay.metric: concentration at 60 min

molecule | observed
O=C(O)[C@H]1O[C@@H](Oc2cc3oc(-c4ccccc4)cc(=O)c3c(O)c2O)[C@H](O)[C@@H](O)[C@@H]1O [BA, baicalin] | 289 ng/mL

* * *

Test: In vivo pharmacokinetics, lung tissue homogenate (UPLC-MS/MS)
Design: species or system rat
Details: male, Sprague-Dawley (SD), lung tissue (homogenate supernatant), inhaled or intranasal; AH in rat lung tissue; pulmonary administration group, BA/AH-DPI 9 mg/kg
Where a name gives a salt, the structure may show the parent alone.
assay.metric: Tmax (min)

compound | assay.metric | observed
Nc1c(Br)cc(Br)cc1CNC1CCC(O)CC1 (stereo not shown) [AH, ambroxol hydrochloride] | Tmax | 2.34

* * *

Assay: In vivo pharmacokinetics, plasma (UPLC-MS/MS)
Parameters: species or system rat
Conditions: male, SD; rat plasma; tail intravenous injection BA/AH-DPI saline solution 9 mg/kg; 10 min; read-out: Blood concentration of AH
Where a name gives a salt, the structure may show the parent alone.
assay.metric: concentration at 10 min (ng/mL)

compound | assay.metric | value.unit | observed
Nc1c(Br)cc(Br)cc1CNC1CCC(O)CC1 (stereo not shown) [AH, ambroxol hydrochloride] | concentration at 10 min | ng/mL | 395

* * *

Assay: In vivo pharmacokinetics, lung tissue homogenate (UPLC-MS/MS)
Set-up: species or system rat
Settings: male, Sprague-Dawley (SD), inhaled; rat lung tissue homogenate; pulmonary administration BA/AH-DPI 9 mg/kg; 30 min; read-out: Drug concentration of BA in lung tissue

compound | concentration at 30 min / µg/mL
O=C(O)[C@H]1O[C@@H](Oc2cc3oc(-c4ccccc4)cc(=O)c3c(O)c2O)[C@H](O)[C@@H](O)[C@@H]1O [BA, baicalin] | 1.42

* * *

Assay: In vivo pharmacokinetics, plasma (UPLC-MS/MS)
Set-up: species or system rat
Conditions: male, SD; rat plasma; tail intravenous injection BA/AH-DPI saline solution 9 mg/kg; 30 min; read-out: Blood concentration of AH
Counter-ions that a name gives are not always drawn.

compound | concentration at 30 min
Nc1c(Br)cc(Br)cc1CNC1CCC(O)CC1 (stereo not shown) [AH, ambroxol hydrochloride] | 252 ng/mL

* * *

Assay: In vivo pharmacokinetics, plasma (UPLC-MS/MS)
Design: species or system rat
Conditions: male, SD, inhaled; rat plasma; pulmonary administration BA/AH-DPI 9 mg/kg; 120 min; read-out: Blood concentration of BA

smi | value.unit | concentration at 120 min
O=C(O)[C@H]1O[C@@H](Oc2cc3oc(-c4ccccc4)cc(=O)c3c(O)c2O)[C@H](O)[C@@H](O)[C@@H]1O | ng/mL | 57.2

* * *

Assay: In vivo pharmacokinetics, lung tissue homogenate (UPLC-MS/MS)
Parameters: species or system rat
Conditions: male, Sprague-Dawley (SD), inhaled; rat lung tissue homogenate; pulmonary administration BA/AH-DPI 9 mg/kg; 4 min; read-out: Drug concentration of AH in lung tissue
Where a name gives a salt, the structure may show the parent alone.
assay.metric: concentration at 4 min (ng/mL)

compound | assay.metric | observed
Nc1c(Br)cc(Br)cc1CNC1CCC(O)CC1 (stereo not shown) [AH, ambroxol hydrochloride] | concentration at 4 min | 5150

* * *

Test: In vivo pharmacokinetics, plasma (UPLC-MS/MS)
Design: species or system rat
Settings: male, SD; rat plasma; tail intravenous injection BA/AH-DPI saline solution 9 mg/kg; 60 min; read-out: Blood concentration of BA

smi | value.unit | concentration at 60 min
O=C(O)[C@H]1O[C@@H](Oc2cc3oc(-c4ccccc4)cc(=O)c3c(O)c2O)[C@H](O)[C@@H](O)[C@@H]1O | ng/mL | 77

* * *

Experiment: In vivo pharmacokinetics, lung tissue homogenate (UPLC-MS/MS)
Design: species or system rat
Settings: male, Sprague-Dawley (SD), inhaled; rat lung tissue homogenate; pulmonary administration BA/AH-DPI 9 mg/kg; 2 min; read-out: Drug concentration of BA in lung tissue

smi | concentration at 2 min, ng/mL
O=C(O)[C@H]1O[C@@H](Oc2cc3oc(-c4ccccc4)cc(=O)c3c(O)c2O)[C@H](O)[C@@H](O)[C@@H]1O | 6440

* * *

Assay: In vivo pharmacokinetics, lung tissue homogenate (UPLC-MS/MS)
Design: species or system rat
Details: male, Sprague-Dawley (SD), lung tissue (homogenate supernatant); AH in rat lung tissue; tail intravenous injection group, 9 mg/kg; read-out: HLz (biological half-life) (converted)
Counter-ions that a name gives are not always drawn.
assay.metric: half-life (h)

molecule | observed
Nc1c(Br)cc(Br)cc1CNC1CCC(O)CC1 (stereo not shown) [AH, ambroxol hydrochloride] | 1.21

* * *

Test: In vivo pharmacokinetics, plasma (UPLC-MS/MS)
Design: species or system rat
Settings: male, SD; rat plasma; tail intravenous injection BA/AH-DPI saline solution 9 mg/kg; 15 min; read-out: Blood concentration of BA

compound | concentration at 15 min [ng/mL]
O=C(O)[C@H]1O[C@@H](Oc2cc3oc(-c4ccccc4)cc(=O)c3c(O)c2O)[C@H](O)[C@@H](O)[C@@H]1O [BA, baicalin] | 693

* * *

Assay: In vivo pharmacokinetics, plasma (UPLC-MS/MS)
Parameters: species or system rat
Conditions: male, SD; rat plasma; tail intravenous injection BA/AH-DPI saline solution 9 mg/kg; 120 min; read-out: Blood concentration of BA
assay.metric: concentration at 120 min

smi | assay.metric | observed
O=C(O)[C@H]1O[C@@H](Oc2cc3oc(-c4ccccc4)cc(=O)c3c(O)c2O)[C@H](O)[C@@H](O)[C@@H]1O | concentration at 120 min | 53.7 ng/mL
